- Tested on: Colon cancer organoid
- method: Targeting of F14 CAF-induced therapy resistance in O14 CRC organoid-stroma co-culture. Cell viability is reported without Gefitinib.
- Format: functional, Homo sapiens
- test_conditions: Homo sapiens, Concentration 10 uM; read-out: Cell Viability
The entries below come with measured viability at 10 µM values attached.
Please give a number only; it is taken to be in %.

Answered cases to consult:
CNCc1ccccc1-c1csc([C@@H](C)Nc2nc(C)nc3cc(OC)c(OC)cc23)c1 [BAY-293] | 64
CN1C[C@H](Nc2cnn(C)c(=O)c2Br)C[C@H](c2ccccc2)C1 | 84.6
CC(=O)C1=C(C)N(c2cccc(C(F)(F)F)c2)C(=O)N[C@@H]1c1ccc(C#N)nc1 [BAY-678] | 103
O=C(NC[C@H](O)CN1CCc2ccccc2C1)c1ccnc(NC2CCC2)c1 | 32.6
Cc1cc(-n2nc(Cc3cc(F)cc(C(F)(F)F)c3)nc2C)ccc1C(N)=O [TP-024] | 110

input: Using known records, supply viability at 10 µM for CC1=C(C)C(=O)C(C(C)(C)CC(=O)N(CCCCSC[C@H]2O[C@@H](n3cnc4c(N)ncnc43)[C@@H]3OC(C)(C)O[C@@H]32)Cc2cccc(-c3ccc(Cl)cc3)c2)=C(C)C1=O
output: 121

input: Using known records, supply viability at 10 µM for N#CC1(c2ccccn2)CCN(Cc2cc(C(=O)N3CCCC3)c(=O)n3ccccc23)CC1 [MSD-M1PAM-NC]
output: 93.4

input: Using known records, supply viability at 10 µM for O=C(Nc1cnc(Oc2ccc(F)cc2)nc1)N1CCc2ncccc2[C@@H]1c1ccc(F)cc1 [BAY-899]
output: 98.8

----------
- Test system: Colon cancer organoid
- method: Targeting of F14 CAF-induced therapy resistance in O23 CRC organoid-stroma co-culture. Cell viability is reported with SN-38.
- Type: functional, Homo sapiens
- test_conditions: Homo sapiens, Concentration 10 uM; read-out: Cell Viability
The entries below come with measured viability at 10 µM values attached.
Put your answer as a value accompanied by its unit after it.

Cc1ccccc1Oc1cc(-n2c(=O)cc(C(F)(F)F)[nH]c2=O)c2ccccc2c1Cl | 51.3%
COc1cc(C(=O)N2CC[C@@H](O)[C@@H](N)C2)cc2nc(-c3cc4ccccc4n3CC3CC3)n(C)c12 | 75.5%

input: Using known records, supply viability at 10 µM for CN1CCN(Cc2cc(NC(=O)c3ccc4c(c3)CN(c3ccccc3)CC4)cc(C(F)(F)F)c2)CC1
output: 63.3%

input: Using known records, supply viability at 10 µM for Cc1noc([C@H]2C[C@@H](c3ccc(C(F)(F)F)cc3)CN(C(=O)N3CCS(=O)(=O)C3)C2)n1
output: 95.1%

input: Using known records, supply viability at 10 µM for CN(C)C(=O)/C(C#N)=C/c1ccc(-c2nc3cnc4[nH]ccc4c3n2C2CCCCC2)o1
output: 65.2%

input: Using known records, supply viability at 10 µM for Cc1cc2c(-c3ccco3)cnc(N[C@@H]3CCN(C)C[C@H]3C(=O)NC3CCCCC3)c2[nH]c1=O
output: 38.8%

input: Using known records, supply viability at 10 µM for N#CN1CC[C@@H](C(=O)Nc2nc3c(s2)CN(C(=O)CN=[N+]=[N-])CC3)C1
output: 78.4%

input: Using known records, supply viability at 10 µM for CC(=O)c1cc(-c2cc(C(=O)NC3CC3)ccc2C)c2ncccn12
output: 91.2%

These data points were gathered from ChEMBL document CHEMBL5608113.
